Origin of measurements: patent US10351519B2

The compounds listed here are annotated with their MES test (po) Peak time.
System: SD rats
Assay: Anti-epilepsy activity, MES test, rat
Format: in vivo
Write the number in h without appending the unit.

>>> number("C[C@H](OS(N)(=O)=O)[C@@H](O)c1ccc(Cl)cc1Cl")
4
>>> number("CC(C)NS(=O)(=O)O[C@@H](C)[C@@H](O)c1ccccc1Cl")
2

// MES test (po) Peak time lookup, compound = "CC[C@@H](OS(N)(=O)=O)[C@H](O)c1ccccc1Cl" , result: 1

# MES test (po) Peak time of "C[C@@H](OS(N)(=O)=O)[C@H](O)c1ccc(Cl)cc1Cl" = 4

The value of MES test (po) Peak time measured for the compound "CC[C@H](OS(N)(=O)=O)[C@@H](O)c1ccccc1Cl" turned out to be 2

Notebook: "COCO[C@@H](c1ccccc1Cl)[C@H](C)OS(N)(=O)=O" , MES test (po) Peak time read as 1
